Assay: in vitro
Format: in vitro ADME, rhesus monkeys
Conditions: rhesus monkey, microsomes

>  <Molecule>
COc1ccc(-c2oc3c(CC=C(C)C)c(O[C@@H]4O[C@H](CO)[C@@H](O)[C@H](O)[C@H]4O)cc(O)c3c(=O)c2O)cc1 [icariside I]

>  <CLint scaled at 5 μM [mL/min/kg]>
36.4

$$$$

* * *

Experiment: in vitro
Format: in vitro ADME, mice
Conditions: mouse, microsomes
Measurement Type: CLint scaled at 5 μM (mL/min/kg)

>  <Compound>
COc1ccc(-c2oc3c(CC=C(C)C)c(O[C@@H]4O[C@H](CO)[C@@H](O)[C@H](O)[C@H]4O)cc(O)c3c(=O)c2O)cc1 [icariside I]

>  <Measurement Type>
CLint scaled at 5 μM

>  <Output Unit>
mL/min/kg

>  <Quantitative Readout>
79.3

$$$$
